# reported kon; entries follow
- TEST SYSTEM: T1, full length human tau protein 2N4R (hT40) (human, UniProt P10636 1-758)
- T1 construct: recombinant; also called T441
- T1 sequence (P10636 other isoform, or with tags, fused parts or gaps limits assumed): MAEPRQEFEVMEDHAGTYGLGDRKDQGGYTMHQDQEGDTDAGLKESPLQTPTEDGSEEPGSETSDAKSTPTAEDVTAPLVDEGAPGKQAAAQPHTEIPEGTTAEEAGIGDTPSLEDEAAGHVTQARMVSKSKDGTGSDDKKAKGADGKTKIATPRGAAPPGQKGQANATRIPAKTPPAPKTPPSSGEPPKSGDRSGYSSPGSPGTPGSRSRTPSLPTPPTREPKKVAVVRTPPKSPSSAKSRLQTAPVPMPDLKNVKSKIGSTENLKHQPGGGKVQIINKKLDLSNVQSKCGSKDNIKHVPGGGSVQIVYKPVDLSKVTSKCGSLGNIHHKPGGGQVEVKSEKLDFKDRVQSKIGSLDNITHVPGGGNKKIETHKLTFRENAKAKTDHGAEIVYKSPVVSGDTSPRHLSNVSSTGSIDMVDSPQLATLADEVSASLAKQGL
- ASSAY: SPR, hT40 immobilised, mAb analyte
Give the value in M⁻¹ s⁻¹ but do not write M⁻¹ s⁻¹ after it.

A selection of reference data follows.
>>> measured_result("CC7 mAb (antibody, mouse IgG2a, V domains shown, sheep-mouse IgG2a chimeric mAb; also called CC7 antibody) VH: QVQLQESGPSLVKPSQTLSLTCTVSGFSLTSNAVIWVRQAPGKAPEWVALIDVDGDAAYDPALKSRLSITRDTSKSQVSLSLRSVTTEDTAVYYCARDYGSWGYVSDIDYWGPGLLVTVSS VL: RVVRTQPSSVSGSLGQRVSITCSGSYITGSSVGWFQQVPGSGLKTVIYDNNDRPSGVPDRFSGSKSGDTATLTISSLQAEDEADYYCASYDTSNIGLFGSGTRLTVLG")
"4.58e+06"
>>> measured_result("S1D12 mAb (antibody, mouse IgG2a, V domains shown, sheep-mouse IgG2a chimeric mAb; also called S1D12 antibody; SD12) VH: QVQLQESGPSLVKPSQTLSLTCTVSGFSLNNNAVGWVRQAPGKVPESLVGCSSDGTCYYNSALKSRLDITRDTSKNQISLSLSSVTTDDAAVYYCTRGHYSIYGYDYLGTIDYWGPGLLVTVSS VL: QAVLTQPSSVSGSLGQRVSITCSGSSSNVGGGNSVGWYQHLPGSGLKTIIYDTNSRPSGVPDRFSGSRSGNTATLTINSLQAEDEGDYYCVTGDSTTHDDLVGSGTRLTVLG")
406000

Here is another binder to look at.
For CE2 mAb (antibody, mouse IgG2a, V domains shown, sheep-mouse IgG2a chimeric mAb) VH: QVQLQESGPSLVKPSQTLSLTCTVSGFSLTNYPVGWVRQAPGKALEWIGNIENDGSANYASALKSRLSITRDTSKNQVSLSLSSATTEDTAVYYCGREFGGSDGYTYFVDIDYWGPGLLVTVSS VL: QAVLTQPSSVSKSLGQSVSITCSGSSSNVGYGNYVSWFQQVPGSAPKILIYGATSRASGVPDRFSGSRSGNTATLTITSLQAEDEADYYCASYDGSSSGVFGSGTRLTVLG the binder record lists kon as 458000
